Taken from patent US20040092720A1.

- target desc: T1, recombinant human IL-6 (human, UniProt P05231 30-212, labeled with radioactive iodine)
- T1 construct: Labeled probe in solution, added to wells that carry the synthetic peptides; also called IL-6 ligand; Interleukin-6
- protocol summary: radioiodinated IL-6 on peptide array
property measured: Counts/minute bound (counts/minute)
Quick note: give the figure in counts/minute, leave out the unit.

# get_value(readout='Counts/minute bound', item= PRSTPSLTTKAVLLVAKFQNS (alanine-scan variant of the domain II 21-mer) [Peptide B39] )
10800

Form field: reported Counts/minute bound of SSFYRLRFELRYRAERSKAFT (alanine-scan variant of the domain III 21-mer) [Peptide C36]
15000

Looking for the measured Counts/minute bound of RSKTFT (also called RSKTFT) [Peptide C32] , can you help?
1340

Given the binder RSTPSLTTKAVLLVRKFQNS [Peptide B18] , what is its reported Counts/minute bound?
13000
